Molecular target: T1, soluble human EREG fragment having a mature EGF domain structure (R&D Systems cat. no. 1195-EP/CF) (human, UniProt O14944 63-108)
T1 construct: bought; coated on ELISA plates; also called human epiregulin; recombinant human Epiregulin
T1 sequence (O14944 63-108 limits assumed): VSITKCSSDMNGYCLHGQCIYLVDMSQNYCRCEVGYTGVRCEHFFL
Test: competitive ELISA on coated soluble human EREG fragment
Quantity measured: binding result

HY-G1d/L12-k (antibody, human IgG1, kappa, V domains shown) VH: QDQLVQSGAEVKKPGASVKVSCKASGFNIKDTYIQWVRQAPGQGLEWMGRIDPLNGNTKYVPKFQGRVTITADTSTNTAYMELSSLRSEDTAVYYCVRSGTLFDFWGQGTLVTVSS VL: DIQMTQSPSSLSASVGDRVTITCKASQDIHKYIAWYQQKPGQAPRLLIQYTSTLEPGVPSRFSGSGSGTDYTFTISSLQPEDIATYYCLQYDNLRTFGGGTKVEIKR | binds
H66-G1d/LB-k (antibody, human IgG1, kappa, V domains shown, also called H66-G1/LB-k) VH: QDQLVQSGAEVKKPGASVKVSCKASGFNIKDTYIQWVRQAPGQGLEWMGRIDPLVGNTKYVPKFQGRVTITADTSTNTAYMELSSLRSEDTAVYYCVRSGTLFDFWGQGTLVTVSS VL: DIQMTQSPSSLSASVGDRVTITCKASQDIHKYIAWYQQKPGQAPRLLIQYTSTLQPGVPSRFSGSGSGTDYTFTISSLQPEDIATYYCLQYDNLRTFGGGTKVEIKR | binds
